Origin of the recorded values: ChEMBL document CHEMBL1201862

# Test system: NCI-H522
# METHOD_NOTES: NCI tumour cell line growth inhibition, 48 h
Activity calls are given as the source filed them. No stated cut-off is given here; in the data, active = GI50 up to about 1.1 µM and inactive = higher.
Use one of these outcomes when replying: active, inactive

Completed entries (count: 4):
Returns: the outcome recorded for C/C(=N\O)c1ccc(Nc2c3ccccc3nc3occc23)cc1 in this assay.
active

Returns: the outcome recorded for Cc1ccc(S(=O)(=O)N/N=C2\CC3C4CCC3C2C4)cc1 (stereo not given) in this assay.
inactive

Returns: the outcome recorded for S=C(Nc1c2c(nc3ccccc13)CCCC2)Nc1c2c(nc3ccccc13)CCCC2 in this assay.
inactive

Returns: the outcome recorded for CC(=O)Oc1ccc(CO)cc1OC(C)=O in this assay.
inactive

Shift focus to the following entry.
Returns: the outcome recorded for Cc1cc2c(=O)c3ccccc3[nH]c2c(C(N)=O)c1C in this assay.
inactive

* * *

# System: SNB-75
# METHOD_NOTES: NCI tumour cell line growth inhibition, 48 h
Activity calls are given as the source filed them. Cut-off read from the data, not from the text of the source: active = GI50 up to about 1.1 µM and inactive = higher.
Use one of these outcomes when replying: active, inactive

Returns: the outcome recorded for OCC[N+]12CCCN1CCC2 in this assay.
inactive

Returns: the outcome recorded for CNc1ccc(OC)cc1S(=O)(=O)c1ccccc1[N+](=O)[O-] in this assay.
inactive

Returns: the outcome recorded for CN1S(=O)(=O)N(C)P12(N=P(CP(=NP13(N(C)S(=O)(=O)N1C)N(C)S(=O)(=O)N3C)(c1ccccc1)c1ccccc1)(c1ccccc1)c1ccccc1)N(C)S(=O)(=O)N2C in this assay.
inactive

Returns: the outcome recorded for C=CCCOC(=O)CO[N+](=O)[O-] in this assay.
inactive

* * *

# Test system: A498
# METHOD_NOTES: NCI tumour cell line growth inhibition, 48 h
Calls of active or inactive are those of the source. No stated cut-off is given here; in the data, active = GI50 up to about 1.1 µM and inactive = higher.
ASSAY_METRIC: GI50

Example results:
// map COc1cc(/C=C2\N=C(c3ccccc3)N(c3nc4c(Cl)cc(Cl)cc4s3)C2=O)ccc1O to recorded GI50 (system: A498)
17.8 µM (inactive)

// map Nc1nc(Cl)cc(NC23CC4CC(CC(C4)C2)C3)n1 to recorded GI50 (system: A498)
> 100 µM (inactive)

// map COP(=O)(CP(=O)(OC)OCCC(C)CCC=C(C)C)OC (stereo unspecified) to recorded GI50 (system: A498)
> 100 µM (inactive)

// map COc1ccc(/C=C/C(=O)c2sc(Nc3ccc([N+](=O)[O-])cc3)nc2C)cc1 to recorded GI50 (system: A498)
83.8 µM (inactive)

// map NC(=O)COc1ccccc1 to recorded GI50 (system: A498)
> 100 µM (inactive)

// map O=C1NCCS(=O)(=O)N[C@@H](CC2=CC=CCC2)C(=O)N2CCCC12 (stereo partly specified) to recorded GI50 (system: A498)
> 100 µM (inactive)

// map Oc1ccccc1/C=N/c1ccc(Oc2ccc(Cl)cc2)c(Cl)c1 to recorded GI50 (system: A498)
11.5 µM (inactive)

// map COC(=O)C(Cc1nc2ccccc2nc1O)/C(=N\NC(C)(C)C)C(=O)Nc1c(C)cc(Br)cc1C (stereo unspecified) to recorded GI50 (system: A498)
12.7 µM (inactive)

Dear reader, for each entry below, please note its GI50.
1. S=C(NN=C1NCCCCN1)Nc1ccccc1
2. COc1cc2c(cc1OC)C1c3ccccc3CCCN1CC2 (stereo unspecified)

1. > 100 µM (inactive)
2. > 100 µM (inactive)

Dear reader, for each entry below, please note its GI50.
1. Clc1cc(OC23CC4CC(CC(C4)C2)C3)nc(Cl)n1
2. CC(C)C(O)(C(C)C)C(C)C
3. COC(=O)C1=C(O)C(C(=O)OC)[C@]2(O)[C@H](C(=O)OC)[C@H]1C[C@@H](c1ccc(C(F)(F)F)cc1)[C@H]2C(=O)OC (stereo partly specified)
4. Cc1[nH]c(=O)nc(NCCNCCO)c1C(=O)Nc1c2ccccc2nc2ccccc12
5. COC(=O)N/N=C(\C)CC(=O)Nc1ccc(Cl)cc1
6. O=C1OC(c2ccc([N+](=O)[O-])cc2)=N/C1=C\c1ccc(Cl)cc1
7. C[N+]12CCN(c3ccccc31)c1ccccc12.[O-][Cl+3]([O-])([O-])[O-]
8. CSc1ccc(/C=C/c2ccnc3ccccc23)cc1

1. > 100 µM (inactive)
2. > 100 µM (inactive)
3. 3.37 µM (inactive)
4. > 100 µM (inactive)
5. > 100 µM (inactive)
6. > 100 µM (inactive)
7. > 10 µM (inactive)
8. 15.5 µM (inactive)
